Measured endpoint: melting point

For orientation, consider the following solved cases.
- Compound: "CC1(C)CN=C2C(=O)c3cc(Cl)ccc3N2C1 (hydrate or solvate) [Example 14]"
  Measured endpoint: "melting point"
  Result: "153 to 154 °C"
- Compound: "CC1(C)CN=C2C(=O)c3cc(S(=O)(=O)N4CCCC4)ccc3N2C1 [Example 12]"
  Measured endpoint: "melting point"
  Result: "200 to 201 °C"
- Compound: "Nc1cc2c(cc1Cl)N1CCCN=C1C2=O [Example 16]"
  Measured endpoint: "melting point"
  Result: "> 270 °C"
- Compound: "COc1ccc2c(c1)C(=O)C1=NCCCN12 (hydrate or solvate) [Example 11]"
  Measured endpoint: "melting point"
  Result: "152 °C"
- Compound: "COC[C@H]1CCCN1S(=O)(=O)c1ccc2c(c1)C(=O)C1=NCC(C)(C)CN12"
  Measured endpoint: "melting point"
  Result: "161 to 164 °C"

Reported melting point, compound O=C1C2=NCC3(CCCC3)CN2c2ccc(S(=O)(=O)N3CCC[C@H]3CN3CCOCC3)cc21 [Example 83] : ____
162.9 to 163.6 °C

How about this compound: `COC[C@@H]1CCCN1S(=O)(=O)c1ccc2c(c1)C(=O)C1=NCC3(CCCC3)CN12`
171.2 to 171.9 °C

How about this compound: CC1CCN=C2C(=O)c3cc(Br)ccc3N21 (stereo not shown) [Example 13]
127 to 129 °C

How about this compound: O=C1C2=NCCCN2c2ccc(Br)cc21 [Example 9]
166 to 168 °C (dec.)

How about this compound: CC1CCN2C(=N1)C(=O)c1cc(S(=O)(=O)N3CCCC3)ccc12 (stereo not shown) [Example 87]
152.5 to 153 °C

How about this compound: CC1(C)CN=C2C(=O)c3cc(S(=O)(=O)N4CCC[C@H]4CO)ccc3N2C1 [Example 8]
91 to 96 °C (dec.)

How about this compound: COC[C@@H]1Cc2ccccc2N1S(=O)(=O)c1ccc2c(c1)C(=O)C1=NCC(C)(C)CN12 [Example 33]
173.4 to 175 °C

How about this compound: CNS(=O)(=O)c1ccc2c(c1)C(=O)C1=NCCCN12 [Example 7]
170 to 183 °C (dec.)

How about this compound: O=C1C2=NCCCN2c2ccc(F)cc21 [Example 18]
150 to 152 °C

How about this compound: O=C1C2=NCCCN2c2ccc(S(=O)(=O)N3CCC[C@H]3COc3ccccc3)cc21 [Example 3]
159 to 160 °C

====

target: recombinant caspase 3 (Homo sapiens); construct: His tag (C); experiment: Caspase 3 Inhibition Assay (Ac-DEVD-AFC fluorogenic substrate cleavage); details: recombinant caspase 3 0.25 nM, Ac-DEVD-AFC 25 μM, pH 7.2, 23° C.
Sequence (P42574 29-175 limits assumed, species assumed): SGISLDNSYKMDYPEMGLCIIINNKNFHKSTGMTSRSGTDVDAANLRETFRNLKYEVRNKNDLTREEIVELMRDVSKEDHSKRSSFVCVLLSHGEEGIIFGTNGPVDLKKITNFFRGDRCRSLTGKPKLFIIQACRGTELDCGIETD
Sequence (P42574 176-277 limits assumed, species assumed): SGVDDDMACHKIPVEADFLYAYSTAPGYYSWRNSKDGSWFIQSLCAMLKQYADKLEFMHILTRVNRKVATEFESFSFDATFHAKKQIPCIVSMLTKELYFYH
pIC50 overview
pIC50 (log units): -log10 of the concentration in mol/L.

For orientation, consider the following solved cases.
- Compound: "CC1(C)CN=C2C(=O)c3cc(C#N)ccc3N2C1"
  pIC50: 7.00
- Compound: "CC1(C)CN=C2C(=O)c3cc(S(=O)(=O)N4CCC[C@H]4COc4cccnc4Cl)ccc3N2C1"
  pIC50: 8.15
- Compound: "CC1(C)CN=C2C(=O)c3cc(NS(=O)(=O)c4cccc(Br)c4)ccc3N2C1"
  pIC50: 7.63

Reported pIC50, compound CC1CCN2C(=N1)C(=O)c1cc(S(=O)(=O)N3CCCC3)ccc12 (stereo not drawn) : ____
7.82

How about this compound: `COC[C@@H]1CCCN1S(=O)(=O)c1ccc2c(c1)C(=O)C1=NCC3(CCCCCC3)CN12`
7.35

How about this compound: `CN1CCN(C[C@@H]2CCCN2S(=O)(=O)c2ccc3c(c2)C(=O)C2=NCC4(CCCC4)CN23)CC1`
7.52

How about this compound: `Cc1ccc(OC[C@@H]2CCCN2S(=O)(=O)c2ccc3c(c2)C(=O)C2=NCC(C)(C)CN23)cn1`
7.72

Values were extracted from patent US7256198B2.
